The entries below come with measured EC50 values attached.
- Test system: TNFα
- ASSAY PROCEDURE: IRAK4 Monocyte TNFα Cell Based Assay
- Set-up: species or system human
- ASSAY CONTEXT: Homo sapiens, Monocyte, human monocytes, LPS-stimulated; compounds 1-32; read-out: EC50 TNF
Respond with the bare value in nM.

Please review the following examples before continuing.
>  <SMILES NOTATION>
COC(=O)NC[C@H]1C[C@H](Nc2cc(-c3ccc4cc(C#N)cnn34)ncc2-c2nnc([C@H]3CC[C@H](NC(C)=O)CC3)s2)C1

>  <ATTRIBUTE MEASURED>
EC50

>  <RESULT>
6

$$$$
>  <SMILES NOTATION>
CC(=O)N[C@H]1CC[C@H](c2nnc(-c3cnc(-c4ccc5cc(C#N)cnn45)cc3NC3COC3)s2)CC1

>  <ATTRIBUTE MEASURED>
EC50

>  <RESULT>
10

$$$$
>  <SMILES NOTATION>
CC(=O)N[C@H]1CC[C@H](c2nnc(-c3cnc(-c4ccc5cc(C#N)cnn45)cc3NCC#N)s2)CC1

>  <ATTRIBUTE MEASURED>
EC50

>  <RESULT>
6

$$$$
>  <SMILES NOTATION>
CC(C)Nc1cc(-c2ccc3cc(C#N)cnn23)ncc1-c1nnc(C2CCOCC2)s1

>  <ATTRIBUTE MEASURED>
EC50

>  <RESULT>
211

$$$$

So what's the measured EC50 for this one? CC(=O)N[C@H]1CC[C@H](c2nnc(-c3cnc(-c4ccc5cc(C#N)cnn45)cc3N[C@H]3CC[C@H](c4nnc(C(F)F)o4)CC3)s2)CC1
8

Source listed as patent US11702414B2.
